All figures here come from ChEMBL document CHEMBL1154334.

Assay read-out IC50; system under study: RAC-gamma serine/threonine-protein kinase (Homo sapiens, UniProt Q9Y243).
Sequence (Q9Y243 whole entry): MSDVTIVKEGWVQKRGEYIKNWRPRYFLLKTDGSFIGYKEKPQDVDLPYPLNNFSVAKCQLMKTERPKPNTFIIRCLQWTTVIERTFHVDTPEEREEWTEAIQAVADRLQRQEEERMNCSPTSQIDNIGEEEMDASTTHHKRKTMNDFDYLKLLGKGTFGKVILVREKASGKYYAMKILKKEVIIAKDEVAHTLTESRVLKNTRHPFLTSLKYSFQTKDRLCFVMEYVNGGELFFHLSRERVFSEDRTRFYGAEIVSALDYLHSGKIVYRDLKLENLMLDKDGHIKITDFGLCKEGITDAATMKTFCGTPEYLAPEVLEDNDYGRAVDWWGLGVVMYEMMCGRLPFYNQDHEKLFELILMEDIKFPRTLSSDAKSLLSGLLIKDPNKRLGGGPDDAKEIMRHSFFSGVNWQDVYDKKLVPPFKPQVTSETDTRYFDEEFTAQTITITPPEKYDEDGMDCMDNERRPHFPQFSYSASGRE
Where a SMILES comes first, the peptide text is derived from it. [ ]: non-standard residue; d: D form. The star is where a group is joined. X1 = Nc1nccc(-c2ccc(C(=O)*)s2)n1; Ahx = NCCCCCC(=O)O
READOUT: IC50 (µM)

{"COMPOUND": "N=C(N)NCCC[C@@H](NC(=O)[C@@H](CCCNC(=N)N)NC(=O)CCCCCNC(=O)[C@@H](CCCCN)NC(=O)CCCCCNC(=O)c1cn(-c2ncnc3[nH]cnc23)nn1)C(N)=O", "IC50, µM": 27}
{"COMPOUND": "NCCCC[C@@H](NC(=O)CCCCCNC(=O)c1ccccc1)C(=O)NCCCCCC(=O)N[C@H](CCCN=C(N)N)C(=O)N[C@H](CCCN=C(N)N)C(N)=O", "IC50, µM": 360}
{"COMPOUND": "NCCCC[C@@H](NC(=O)CCCCCNC(=O)c1ccc(-c2ccnc(N)n2)s1)C(=O)NCCCCCC(=O)N[C@H](CCCN=C(N)N)C(=O)N[C@H](CCCN=C(N)N)C(=O)N[C@H](CCCN=C(N)N)C(=O)N[C@H](CCCN=C(N)N)C(=O)N[C@H](CCCN=C(N)N)C(=O)N[C@H](CCCN=C(N)N)C(N)=O ({X1-Ahx}-[dK][Ahx][dR][dR][dR][dR][dR][dR]-NH2)", "IC50, µM": 0.012}

I. NCCCC[C@@H](NC(=O)CCCCCNC(=O)c1ccc(C(N)=O)cc1)C(=O)NCCCCCC(=O)N[C@H](CCCN=C(N)N)C(=O)N[C@H](CCCN=C(N)N)C(N)=O
II. NCCCC[C@@H](NC(=O)CCCCCNC(=O)c1cccc(-c2ccnc(N)n2)c1)C(=O)NCCCCCC(=O)N[C@H](CCCN=C(N)N)C(=O)N[C@H](CCCN=C(N)N)C(N)=O
Returns: the argument ( I or II ) having the larger IC50. Answer format: the label of the selected item.
I
(I: 28 µM, II: 4.6 µM)
